Study the reported pKi values for Sodium-dependent serotonin transporter (Rattus norvegicus) given below; they originate from different publications.
Formally, pKi is defined as -log10 of the concentration c, with c in mol/L.

[[record]]
compound = "CC(C)N1CCN(CCC#Cc2ccc(C(CCN(C)C)Oc3ccc(C(F)(F)F)cc3)cc2)CC1 (centres unmarked)"
quantitativereadout = 7.41

[[record]]
compound = "Cc1ccc2c3c(ccc2n1)OC[C@H](CN1CCC(Cn2ccc4ccc(C#N)cc42)CC1)O3"
quantitativereadout = 9.22

[[record]]
compound = "CN(C)CCC(Oc1ccccc1)c1ccc(C#CCCN2CCSCC2)cc1 (centres unmarked)"
quantitativereadout = 7.74

[[record]]
compound = "Cc1ccc2c3c(ccc2n1)OC[C@H](CN1CCN(c2cccc4c2OCCO4)CC1)O3"
quantitativereadout = 8.92

[[record]]
compound = "CNCc1cc(CN2CCN(C(C)C)C(=O)C2)ccc1Oc1ccc(Cl)c(Cl)c1"
quantitativereadout = 8.22

[[record]]
compound = "CNCCCOc1ccc2c(c1)NC(=O)CO2"
quantitativereadout = 7.09


QUERY: Find the recorded pKi belonging to `O=C(CCN1CCN(c2cccc3c2OCCO3)CC1)c1csc2ccc([N+](=O)[O-])cc12` and report it.
RESULT: 7.80

QUERY: # repeat for `Cc1ccc2c3c(ccc2n1)OC[C@H](CN1CCN(c2coc4ccc(F)cc24)CC1)O3`
RESULT: 7.13

====

Study the reported pKi values for Sodium-dependent serotonin transporter (Rattus norvegicus, UniProt P31652) given below; they originate from different publications.
pKi: −log10 of the molar value.
Response field class: enum, chosen by comparing pKi against bin A (below 8), bin B (8 to below 9), bin C (9 or more)

[[record]]
compound = "CNCc1cc(C#CCCN2CCOCC2)ccc1Oc1ccc(C)nc1"
categorylabel = "bin B"


QUERY: Textbook exercise: identify the category of the compound given here, `Cc1ccc2c3c(ccc2n1)OC[C@H](CNCCCCc1c[nH]c2ccc(C#N)cc12)O3` , according to its measured value.
RESULT: bin C

QUERY: # repeat for CN(C)CCC(Oc1ccc(OCCCN2CCCCC2)cc1)c1ccccc1 (stereo not drawn)
RESULT: bin A

QUERY: # repeat for `CNCc1cc(C#CCCN(C2CC2)C2CC2)ccc1Oc1ccc(Cl)c(Cl)c1`
RESULT: bin A

QUERY: # repeat for `CNCc1cc(N2CCN(CCF)CC2)ccc1Oc1ccc(SC)cc1`
RESULT: bin C

====

Study the reported pKi values for Sodium-dependent serotonin transporter (Rattus norvegicus, UniProt P31652) given below; they originate from different publications.
Formally, pKi is defined as -log10 of the concentration c, with c in mol/L.

Some entries whose results are on file:
[[record]]
molecule = "Cc1nc2ccc3c(c2o1)O[C@@H](CNCCCc1c[nH]c2ccc(C#N)cc12)CO3"
quantitativereadout = 8.74

[[record]]
molecule = "CN(C)CCC(Oc1ccccc1Cl)c1ccc(OCCCN2CCCCC2)cc1 (centres unmarked)"
quantitativereadout = 8.10

[[record]]
molecule = "CNCc1cc(C(=O)NCCN2CCCC2)ccc1Oc1cccc(Cl)c1"
quantitativereadout = 8.70

[[record]]
molecule = "CNCc1cc(C(=O)NCCN(C)C)ccc1Oc1cccc(Cl)c1"
quantitativereadout = 8.52


// moving on: another record for pKi
QUERY: Find the recorded pKi belonging to CN(C)C1CCN(C(=O)c2ccc(CNC3CC3)c(Oc3cccnc3)c2)C1 (centres unmarked) and report it.
RESULT: 5.22

====

Study the reported log10(Ki) values for Sodium-dependent serotonin transporter (Rattus norvegicus) given below; they originate from different publications.
// units: nM (pre-log); metric: Ki; scale: log10

[[record]]
molecule = "CC(C)N1CCN(Cc2ccc(C(CCN(C)C)Oc3ccccc3)cc2)CC1 (centres unmarked)"
testedsystem = "Sodium-dependent serotonin transporter (Rattus norvegicus)"
quantitativereadout = 1.15


QUERY: Find the recorded log10(Ki) belonging to CN(C)CCC(Oc1ccc(C(F)(F)F)cc1)c1ccc(C(=O)N2CCN(C3CCCC3)CC2)cc1 (centres unmarked) and report it.
RESULT: 1.72

QUERY: # repeat for OC(CCN1CCN(c2cccc3[nH]ccc23)CC1)c1csc2ccc(F)cc12 (centres unmarked)
RESULT: 0.86

QUERY: # repeat for `Cc1ccc2c3c(ccc2n1)OC[C@H](CNCCCc1csc2ccc(Cl)cc12)O3`
RESULT: 0.99

QUERY: # repeat for `Cc1ccc2c3c(ccc2n1)OC[C@H](CN1CCN(c2cccc(Cl)c2)CC1)O3`
RESULT: 1.20

QUERY: # repeat for CSc1ccc(OC(CCN(C)C)c2ccc(OCCCN3CCCCC3)cc2)cc1 (centres unmarked)
RESULT: 0.11

QUERY: # repeat for `Cc1nc2ccc3c(c2o1)O[C@@H](CN[C@H]1CC[C@@H](c2c[nH]c4ccc(F)cc42)CC1)CO3`
RESULT: 1.04

QUERY: # repeat for Cc1ccc2c3c(ccc2n1)OCC(CNCCCCc1c[nH]c2ccc(F)cc12)O3 (centres unmarked)
RESULT: 0.11

====

pKi: −log10 of the molar value.
Study the reported pKi values for Sodium-dependent serotonin transporter (Rattus norvegicus, UniProt P31652) given below; they originate from different publications.
Assign yes (1) to entries whose pKi meets or exceeds 8; assign no (0) to the rest.

These recorded examples may help you get a feel for the data.
[[record]]
molecule = "CC(C)N1CCN(C(=O)c2ccc(OC(CCN(C)C)c3ccc(C(F)(F)F)cc3)cc2)CC1 (centres unmarked)"
testedsystem = "Sodium-dependent serotonin transporter (Rattus norvegicus, UniProt P31652)"
categorylabel = "no (0)"

[[record]]
molecule = "Cc1ccc2c3c(ccc2n1)OCC(CN1CC(CCn2ccc4ccc(F)cc42)C1)O3 (centres unmarked)"
testedsystem = "Sodium-dependent serotonin transporter (Rattus norvegicus, UniProt P31652)"
categorylabel = "yes (1)"

[[record]]
molecule = "Cc1ccc2c3c(ccc2n1)OCC(CN(C)CCCCc1c[nH]c2ccc(F)cc12)O3 (centres unmarked)"
testedsystem = "Sodium-dependent serotonin transporter (Rattus norvegicus, UniProt P31652)"
categorylabel = "yes (1)"

[[record]]
molecule = "CNCc1cc(C#CCCN2CCN(C(C)C)CC2)ccc1Oc1ccc(SC)cc1"
testedsystem = "Sodium-dependent serotonin transporter (Rattus norvegicus, UniProt P31652)"
categorylabel = "yes (1)"

[[record]]
molecule = "CCN(CCCc1c[nH]c2ccc(F)cc12)C[C@H]1COc2ccc3nc(C)oc3c2O1"
testedsystem = "Sodium-dependent serotonin transporter (Rattus norvegicus, UniProt P31652)"
categorylabel = "yes (1)"

[[record]]
molecule = "CC(C)N1CCN(CCC#Cc2ccc(OC(CCN(C)C)c3ccc(C(F)(F)F)cc3)cc2)CC1 (centres unmarked)"
testedsystem = "Sodium-dependent serotonin transporter (Rattus norvegicus, UniProt P31652)"
categorylabel = "no (0)"

[[record]]
molecule = "CC(C)N1CCC(Oc2ccc(OC(CCN(C)C)c3ccccc3)cc2)CC1 (centres unmarked)"
testedsystem = "Sodium-dependent serotonin transporter (Rattus norvegicus, UniProt P31652)"
categorylabel = "no (0)"

[[record]]
molecule = "CN(C)CCC(Oc1ccc2[nH]ccc2c1)c1ccc(OCCCN2CCCCC2)cc1 (centres unmarked)"
testedsystem = "Sodium-dependent serotonin transporter (Rattus norvegicus, UniProt P31652)"
categorylabel = "no (0)"

[[record]]
molecule = "Cc1ccc2c3c(ccc2n1)OC[C@H](CN1CC(Cc2cn(C)c4ccc(F)cc24)C1)O3"
testedsystem = "Sodium-dependent serotonin transporter (Rattus norvegicus, UniProt P31652)"
categorylabel = "yes (1)"

[[record]]
molecule = "CSc1ccc(Oc2ccc(CN3CCN(C(C)C)CC3)cc2CN(C)C)cc1"
testedsystem = "Sodium-dependent serotonin transporter (Rattus norvegicus, UniProt P31652)"
categorylabel = "yes (1)"


QUERY: Answer whether pKi of Cc1ccc2c3c(ccc2n1)OC[C@H](CN(C)[C@H]1CC[C@@H](c2c[nH]c4ccc(F)cc24)C1)O3 (mixture of isomers) is greater than or equal to 8.
RESULT: yes (1)

QUERY: # repeat for `Cc1ccc2[nH]cc(CC3CN(C[C@H]4COc5ccc6nc(C)ccc6c5O4)C3)c2c1`
RESULT: yes (1)

QUERY: # repeat for CN(C)CCC(Sc1ccccc1)c1ccc(OCCCN2CCCCC2)cc1 (centres unmarked)
RESULT: yes (1)

====

Study the reported Ki values for Sodium-dependent serotonin transporter (Rattus norvegicus, UniProt P31652) given below; they originate from different publications.
Expressed in nM, but write only the number.

[[record]]
compound = "Cc1nc2ccc3c(c2o1)OC(CN(C)CCCc1c[nH]c2ccc(F)cc12)CO3 (centres unmarked)"
measuredmetric = "Ki"
resultunit = "nM"
quantitativereadout = 1.4

[[record]]
compound = "CCCCN1CCN(C(=O)c2ccc(C(CCN(C)C)Oc3ccc(C(F)(F)F)cc3)cc2)CC1 (centres unmarked)"
measuredmetric = "Ki"
resultunit = "nM"
quantitativereadout = 86

[[record]]
compound = "Cc1ccc2c3c(ccc2n1)OCC(CNCCCCn1ccc2ccc(F)cc21)O3 (centres unmarked)"
measuredmetric = "Ki"
resultunit = "nM"
quantitativereadout = 1.31

[[record]]
compound = "Cc1ccc2c3c(ccc2n1)OCC(CNCCCCc1coc2ccccc12)O3 (centres unmarked)"
measuredmetric = "Ki"
resultunit = "nM"
quantitativereadout = 5.5

[[record]]
compound = "CCc1ccc2c3c(ccc2n1)OCC(CNCCCc1c[nH]c2ccc(F)cc12)O3 (centres unmarked)"
measuredmetric = "Ki"
resultunit = "nM"
quantitativereadout = 0.96

[[record]]
compound = "Cc1ccc2c3c(ccc2n1)OC[C@H](CNCCc1c[nH]c2ccc(Cl)cc12)O3"
measuredmetric = "Ki"
resultunit = "nM"
quantitativereadout = 34

[[record]]
compound = "CN(C)CCC(Oc1ccc(OCCCN2CCCCC2)cc1)c1ccc(Cl)cc1 (centres unmarked)"
measuredmetric = "Ki"
resultunit = "nM"
quantitativereadout = 23

[[record]]
compound = "CCc1ccc2c3c(ccc2n1)OC[C@H](CN1CCC(Cn2ccc4ccc(F)cc42)CC1)O3"
measuredmetric = "Ki"
resultunit = "nM"
quantitativereadout = 1.61

[[record]]
compound = "Cc1nc2ccc3c(c2o1)O[C@@H](CN(C)CCCc1c[nH]c2ccc(C#N)cc12)CO3"
measuredmetric = "Ki"
resultunit = "nM"
quantitativereadout = 2.4

[[record]]
compound = "Cc1ccc2c3c(ccc2n1)OCC(CN(C)CCCc1cn(C)c2ccc(F)cc12)O3 (centres unmarked)"
measuredmetric = "Ki"
resultunit = "nM"
quantitativereadout = 2.75


QUERY: Find the recorded Ki belonging to `CNCc1cc(N2CCN(C(C)C)CC2=O)ccc1Oc1ccc(Cl)c(Cl)c1` and report it.
RESULT: 7

QUERY: # repeat for CN(C)CCC(Oc1ccc(C(F)(F)F)cc1)c1ccc(C#CCCN2CCOCC2)cc1 (centres unmarked)
RESULT: 80

QUERY: # repeat for `COc1cccc(N2CCN(C[C@H]3COc4ccc5nc(C)ccc5c4O3)CC2)c1`
RESULT: 35.5

QUERY: # repeat for `CNCc1cc(C(=O)N2CCN(C3CC3)CC2)ccc1Oc1ccc(C)nc1`
RESULT: 190

QUERY: # repeat for CN(C)CCC(Oc1ccc(Cl)c(Cl)c1)c1ccc(C#CCCN2CCCCC2)cc1 (centres unmarked)
RESULT: 21

QUERY: # repeat for `COc1cccc2c(N3CCN(C[C@H]4COc5ccc6nc(C)ccc6c5O4)CC3)coc12`
RESULT: 266

QUERY: # repeat for Cc1ccc2c3c(ccc2n1)OC[C@H](CN[C@H]1CC[C@@H](c2c[nH]c4ccc(F)cc24)C1)O3 (mixture of isomers)
RESULT: 0.93
